Values were extracted from patent US20250304677A1.

target: T1, cynomolgus folate receptor alpha, recombinant (cynomolgus, UniProt A0A2K5U044 25-233); assay: BLI, purified VHH
T1 construct: also called cyFOLR1; cynomolgus FRα
T1 sequence (A0A2K5U044 entry or part of it): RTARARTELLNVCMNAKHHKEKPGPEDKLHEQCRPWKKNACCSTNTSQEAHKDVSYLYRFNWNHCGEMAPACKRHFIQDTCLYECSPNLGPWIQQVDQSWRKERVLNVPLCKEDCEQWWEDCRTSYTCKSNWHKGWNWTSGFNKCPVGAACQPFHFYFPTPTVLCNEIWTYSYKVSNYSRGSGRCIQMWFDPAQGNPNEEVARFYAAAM
Readout type: koff

P01500059: P01500001(G26E, D72E)-FLAG3-HIS6 (VHH, also called P0150059) VHH: EVQLVESGGGLVQPGGSLRLSCAASESGFSGMIMGWYRQAPGKQRELVATVTSHGTTNYADSVKGRFTISRENAKNTVYLQMNSLRPEDTAVYYCNAHFPGIYWGKGTLVTVSS	0.000292 s⁻¹

Read the next record carefully.
// field: koff; key: P01500050: P01500001(G28T, D72P)-FLAG3-HIS6 (VHH, also called P0150050) VHH: EVQLVESGGGLVQPGGSLRLSCAASGSTFSGMIMGWYRQAPGKQRELVATVTSHGTTNYADSVKGRFTISRPNAKNTVYLQMNSLRPEDTAVYYCNAHFPGIYWGKGTLVTVSS ; value = 0.00109 s⁻¹
